Biological target: human Siglec-7 on primary human monocyte-derived dendritic cells (human, UniProt Q9Y286 19-467)
Sequence (Q9Y286 19-467): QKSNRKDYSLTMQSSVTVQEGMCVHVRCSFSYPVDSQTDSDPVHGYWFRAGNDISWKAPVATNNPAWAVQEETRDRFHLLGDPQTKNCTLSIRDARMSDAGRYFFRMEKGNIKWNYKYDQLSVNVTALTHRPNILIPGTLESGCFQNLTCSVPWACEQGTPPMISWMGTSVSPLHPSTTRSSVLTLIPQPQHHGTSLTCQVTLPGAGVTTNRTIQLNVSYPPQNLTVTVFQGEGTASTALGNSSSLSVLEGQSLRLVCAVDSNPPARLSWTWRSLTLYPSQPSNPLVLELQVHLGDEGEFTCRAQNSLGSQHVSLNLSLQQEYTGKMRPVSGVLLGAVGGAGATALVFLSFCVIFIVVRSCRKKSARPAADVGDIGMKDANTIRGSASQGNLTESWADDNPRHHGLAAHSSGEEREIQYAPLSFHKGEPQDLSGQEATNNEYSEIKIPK
Test: cell-based or functional assay
Measured Fold increase in potency compared to AB-H8, listed per entry.
Respond with the bare value in fold.

Before answering, review these 4 worked examples.
>>> test_result("S7AB-H8.41 (antibody, V domains shown) VH: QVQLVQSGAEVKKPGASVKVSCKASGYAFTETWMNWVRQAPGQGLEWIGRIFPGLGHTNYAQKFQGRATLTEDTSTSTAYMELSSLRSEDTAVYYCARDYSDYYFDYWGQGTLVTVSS VL: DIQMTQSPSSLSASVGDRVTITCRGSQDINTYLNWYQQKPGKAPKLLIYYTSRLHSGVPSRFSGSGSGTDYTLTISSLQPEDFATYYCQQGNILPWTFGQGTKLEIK")
3.2
>>> test_result("S7AB-H8.10.2 (antibody, V domains shown) VH: QVQLVQSGAEVKKPGASVKVSCKASGYAFTEAWMNWVRQARGQRLEWIGRIFPGYGHTNYAQKFQGRATLTEDTSTSTAYMELSSLRSEDTAVYYCARDYSDYYFDYWGQGTLVTVSS VL: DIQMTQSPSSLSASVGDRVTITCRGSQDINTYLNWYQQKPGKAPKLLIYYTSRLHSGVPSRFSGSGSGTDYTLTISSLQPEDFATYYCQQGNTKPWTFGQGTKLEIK")
2.1
>>> test_result("S7AB-H8.9 (antibody, V domains shown) VH: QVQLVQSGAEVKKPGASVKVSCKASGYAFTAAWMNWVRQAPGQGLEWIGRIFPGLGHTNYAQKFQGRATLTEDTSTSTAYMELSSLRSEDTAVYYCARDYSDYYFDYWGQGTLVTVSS VL: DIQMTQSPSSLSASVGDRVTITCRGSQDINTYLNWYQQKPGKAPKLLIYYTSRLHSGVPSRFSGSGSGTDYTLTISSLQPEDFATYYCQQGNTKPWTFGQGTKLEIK")
2.9
>>> test_result("S7AB-H8.10 (antibody, V domains shown) VH: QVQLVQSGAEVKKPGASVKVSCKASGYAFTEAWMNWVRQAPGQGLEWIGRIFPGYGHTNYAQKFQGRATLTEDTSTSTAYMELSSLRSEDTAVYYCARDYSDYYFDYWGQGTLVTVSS VL: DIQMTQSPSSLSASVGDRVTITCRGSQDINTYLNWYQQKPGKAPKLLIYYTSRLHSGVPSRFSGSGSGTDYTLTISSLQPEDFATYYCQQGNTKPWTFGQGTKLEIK")
1.7

Can you share its Fold increase in potency compared to AB-H8? I mean this binder: S7AB-H8.2 (antibody, V domains shown) VH: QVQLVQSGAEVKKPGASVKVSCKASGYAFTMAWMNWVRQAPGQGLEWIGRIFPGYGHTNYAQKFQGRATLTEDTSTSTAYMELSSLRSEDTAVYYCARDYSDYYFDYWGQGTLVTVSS VL: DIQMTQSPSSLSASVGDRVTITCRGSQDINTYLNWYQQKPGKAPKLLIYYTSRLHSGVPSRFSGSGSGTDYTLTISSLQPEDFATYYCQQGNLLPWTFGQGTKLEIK 3.9
